Target: IL-13 (Homo sapiens (Human), UniProt P35225 35-146, limits assumed)
Sequence (P35225 35-146 limits assumed): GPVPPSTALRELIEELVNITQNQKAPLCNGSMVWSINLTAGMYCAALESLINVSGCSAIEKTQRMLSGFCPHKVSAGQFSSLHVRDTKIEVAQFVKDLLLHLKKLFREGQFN
Assay: Biacore
Assay Endpoint: pKd
Please treat pKd as minus the base-10 logarithm of the molar concentration.

Asked: Need pKd of M461 (antibody, V domains shown, anti-IL-13, human IgG1) VH: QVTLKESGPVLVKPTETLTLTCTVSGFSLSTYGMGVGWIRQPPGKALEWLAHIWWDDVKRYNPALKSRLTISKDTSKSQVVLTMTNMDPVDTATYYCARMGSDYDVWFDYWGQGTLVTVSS VL: EIVLTQSPATLSLSPGERATLSCRASKSISKYLAWYQQKPGQAPRLLIYSGSTLQSGIPARFSGSGSGTDFTLTISSLEPEDFAVYYCQQHSIGPYTFGQGTKLEIK , thanks.
Given back: 9.71

Asked: Value lookup for pKd; key = M466 (antibody, V domains shown, anti-IL-13, human IgG1) VH: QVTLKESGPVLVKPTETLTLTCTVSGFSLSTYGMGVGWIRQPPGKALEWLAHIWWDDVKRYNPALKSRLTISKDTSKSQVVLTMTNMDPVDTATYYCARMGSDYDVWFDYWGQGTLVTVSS VL: EIVLTQSPATLSLSPGERATLSCRASKSISKYLAWYQQKPGQAPRLLIYSGSTLQSGIPARFSGSGSGTDFTLTISSLEPEDFAVYYCQQHDWSPYTFGQGTKLEIK
Given back: 9.65

Asked: Consider the binder M448 (antibody, V domains shown, anti-IL-13, human IgG1) VH: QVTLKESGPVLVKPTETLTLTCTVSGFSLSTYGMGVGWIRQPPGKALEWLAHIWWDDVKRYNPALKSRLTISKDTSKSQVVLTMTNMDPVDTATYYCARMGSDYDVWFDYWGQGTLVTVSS VL: EIVLTQSPATLSLSPGERATLSCRASKSISKYLAWYQQKPGQAPRLLIYSGSTLQSGIPARFSGSGSGTDFTLTISSLEPEDFAVYYCQQHSHGPYTFGQGTKLEIK and give its measured pKd.
Given back: 10.04
